System: GB4
assay.protocol: qHTS profiling for inhibitors of Plasmodium falciparum proliferation (AID 504749); note: nearly all actives have a fitted effect of over 60% in size
measurement.parameters: P. falciparum in erythrocytes, SYBR Green DNA, 72 h; series mostly up to 28.7 µM
Inconclusive results are not listed. The source made the active and inactive calls. Calls come from the whole dose curve; as a rule, active = well fitted inhibition curve with a large enough effect; inconclusive = small, poorly fitted or top-dose-only effect; inactive = flat fitted curve, though single readings scatter.
Give one outcome, nothing more. List: active, inactive

Please share the test call associated with [N-]=[N+]=CC(=O)OCC(N)C(=O)O (stereo not given) . inactive

Please share the test call associated with CCCCCCCCOC(=O)c1ccccc1C(=O)OCCCCCCCC . inactive

Please share the test call associated with CCOC(=O)c1ccccc1C(=O)OCC . inactive

Please share the test call associated with [O]=[Cd] . inactive

Please share the test call associated with CCCCCCCCCC(=O)O[C@H]1CC[C@H]2[C@@H]3CCC4=CC(=O)CC[C@]4(C)[C@H]3CC[C@]12C . inactive

Please share the test call associated with Clc1ccc(C2(Cn3cncn3)OCCO2)c(Cl)c1 . inactive

Please share the test call associated with ClCC1CO1 (stereo not given) . inactive

Please share the test call associated with O=C(NC(=O)c1c(F)cccc1F)Nc1ccc(Cl)c(Oc2ncc(C(F)(F)F)cc2Cl)c1 . inactive

Please share the test call associated with CN1CCCC(=C(c2cccs2)c2cccs2)C1 . active

Please share the test call associated with O=C1CN(O)C(c2ccccc2)=c2cc(Cl)ccc2=N1 . inactive

Please share the test call associated with O=C(CCl)c1ccc(Oc2ccc(C(=O)CCl)cc2)cc1 . inactive

Please share the test call associated with O=[N+]([O-])c1cc(I)c(O)c(I)c1 . inactive

Please share the test call associated with [O]=[Cr](=[O])([OH])[O][Cr](=[O])(=[O])[OH] . inactive

Please share the test call associated with CC(=O)OC1CN2CCC1CC2 (stereo not given) . inactive

Please share the test call associated with CCC1(c2ccccc2)C(=O)NC(=O)N(C(=O)c2ccccc2)C1=O (stereo not given) . inactive

Please share the test call associated with C[CH2][Hg][S]c1ccccc1C(=O)O . active

Please share the test call associated with CC[N+](C)(CC)CCOC(=O)C(O)(c1ccccc1)c1ccccc1 . inactive

Please share the test call associated with O=C1CC[C@@]2(O)C3Cc4ccc(O)c5c4C2(CCN3CC2CC2)[C@H]1O5 (stereo not given in full) . inactive

Please share the test call associated with C=CCN(C1=NCCN1)c1c(Cl)cccc1Cl . inactive

Please share the test call associated with NCC(O)c1cccc(O)c1 (stereo not given) . inactive

Please share the test call associated with c1ccc2sc(SNC3CCCCC3)nc2c1 . inactive

Please share the test call associated with c1ccc(C2(N3CCCC3)CCCCC2)cc1 . active

Please share the test call associated with C#CC(C)(O)CC (stereo not given) . inactive

Please share the test call associated with O=CC=O . inactive

Please share the test call associated with C=CCN1CC[C@]23c4c5ccc(O)c4O[C@H]2[C@@H](O)C=C[C@H]3[C@H]1C5 . inactive

Please share the test call associated with c1csc(C2(N3CCCCC3)CCCCC2)c1 . inactive

Please share the test call associated with CCC1(c2ccccc2)C(=O)NC(=O)NC1=O . inactive

Please share the test call associated with CC(C)Nc1ccc(Nc2ccccc2)cc1 . active

Please share the test call associated with CC(Cc1ccccc1)NC=O (stereo not given) . inactive

Please share the test call associated with O=C(O)C(Cl)(Cl)Cl . inactive

Please share the test call associated with Clc1ccccc1Cl . inactive

Please share the test call associated with ClC(Cl)(Cl)Cl . inactive

Please share the test call associated with S=C=S . inactive

Please share the test call associated with O[C@H]1[C@H]2[C@H](O)CCCN2C[C@H]1O . inactive

Please share the test call associated with C/C(=C\c1csc(C)n1)[C@@H]1C[C@@H]2O[C@]2(C)CCC[C@H](C)[C@H](O)[C@@H](C)C(=O)C(C)(C)[C@@H](O)CC(=O)O1 . active

Please share the test call associated with CCC(C)(S(=O)(=O)CC)S(=O)(=O)CC . inactive

Please share the test call associated with ClC1C(Cl)C(Cl)C(Cl)C(Cl)C1Cl (stereo not given) . inactive

Please share the test call associated with O=C1CN=C(c2ccccc2)c2cc(Cl)ccc2N1CC1CC1 . inactive

Please share the test call associated with O=[N+]([O-])C(Br)(CO)CO . inactive

Please share the test call associated with CC(N)Cc1ccc(O)cc1 (stereo not given) . inactive

Please share the test call associated with CCCC(C)(COC(N)=O)COC(=O)NC1CC1 (stereo not given) . inactive

Please share the test call associated with CNC(=O)OCC[N+](C)(C)C . inactive

Please share the test call associated with O=[N+]([O-])c1ccc(F)c([N+](=O)[O-])c1 . inactive

Please share the test call associated with N#CC1(N2CCCCC2)CCCCC1 . inactive

Please share the test call associated with CCC1(C)CC(=O)NC(=O)C1 . inactive

* * *

Test system: AS120
assay.protocol: qHTS profiling for inhibitors of Plasmodium falciparum proliferation (AID 504749); note: nearly all actives have a fitted effect of over 60% in size
measurement.parameters: P. falciparum in erythrocytes, SYBR Green DNA, 72 h; series mostly up to 28.7 µM
Results filed as inconclusive are left out. The source made the active and inactive calls. Calls come from the whole dose curve; as a rule, active = well fitted inhibition curve with a large enough effect; inconclusive = small, poorly fitted or top-dose-only effect; inactive = flat fitted curve, though single readings scatter.
Give one outcome, nothing more. List: 1.0 = active, 0.0 = inactive

Please share the test call associated with CCON=O . 0.0

Please share the test call associated with O=C(OCCN1CCCCC1)C(O)(c1ccccc1)c1ccccc1 . 0.0

Please share the test call associated with CC(Cc1ccccc1)NC=O (stereo not drawn) . 0.0

Please share the test call associated with O=[N+]([O-])c1ccc(F)c([N+](=O)[O-])c1 . 0.0

Please share the test call associated with CCCCCCCCOC(=O)c1ccccc1C(=O)OCCCCCCCC . 0.0

Please share the test call associated with COC([CH2][Hg])CNC(=O)c1ccccc1OCC(=O)O (stereo not drawn) . 0.0

Please share the test call associated with S=C=S . 0.0

Please share the test call associated with F/C(COc1ccc2c(c1)[nH]c1ccccc12)=C1/CN2CCC1CC2 . 1.0

Please share the test call associated with CNC1(c2ccccc2Cl)CCCCC1=O (stereo not drawn) . 0.0

Please share the test call associated with O=[N+]([O-])c1ccccc1 . 0.0

Please share the test call associated with CCOc1ccc2c3c1O[C@H]1[C@@H](O)C=C[C@H]4[C@@H](C2)N(C)CC[C@@]341 . 0.0

Please share the test call associated with CN1C2CCC1CC(OC(c1ccccc1)c1ccc(Cl)cc1)C2 (stereo not drawn) . 1.0

Please share the test call associated with O=C(CS(=O)C(c1ccccc1)c1ccccc1)NO (stereo not drawn) . 0.0

Please share the test call associated with O=C/C=C/c1ccccc1 . 0.0

Please share the test call associated with O=C(NCNC(=O)NC1C(=O)NC(=O)N1CO)NC1C(=O)NC(=O)N1CO (stereo not drawn) . 0.0

Please share the test call associated with CCC1C(C)=NN=C(c2ccc(OC)c(OC)c2)c2cc(OC)c(OC)cc21 (stereo not drawn) . 0.0

Please share the test call associated with CCNC(C)Cc1cccc(C(F)(F)F)c1 (stereo not drawn) . 0.0

Please share the test call associated with C=CCN=C=S . 0.0

Please share the test call associated with O=C1CCCCC1CN1CCCCC1 (stereo not drawn) . 0.0

Please share the test call associated with COC1=CC=C2[C@H]3Cc4ccc(OC)c5c4[C@@]2(CCN3C)[C@H]1O5 . 0.0

Please share the test call associated with CNC(=O)OCC[N+](C)(C)C . 0.0

Please share the test call associated with Clc1ccccc1Cl . 0.0

Please share the test call associated with CN1c2ccccc2C(NCCCCCCC(=O)O)c2ccc(Cl)cc2S1(=O)=O (stereo not drawn) . 0.0

Please share the test call associated with Clc1ccc(C2(Cn3cncn3)OCCO2)c(Cl)c1 . 0.0

Please share the test call associated with CCCCNCC(O)c1ccc(O)cc1 (stereo not drawn) . 0.0

Please share the test call associated with c1csc(C2(N3CCCCC3)CCCCC2)c1 . 0.0

Please share the test call associated with O=c1[nH]c(=O)n(Cl)c(=O)n1Cl . 0.0

Please share the test call associated with O=C(O)C(Cl)(Cl)Cl . 0.0

* * *

Test system: HEK293
assay.protocol: Cytotoxic Profiling of Annotated Libraries Using Quantitative High-Throughput Screening (AID 1296008); note: % is set by controls: 0 for no effect and ±100 for the full control effect; nearly all actives have a fitted effect of over 60% in size
measurement.parameters: Five cell lines viability, CellTiter-Glo ATP luminescence, 48-72 h; hits give low values
Results filed as inconclusive are left out.
For each record, write down the corresponding max response.
# number only, unit % dropped from output

Need max response of C=CC(C)(O)CC/C=C(\C)C(=O)O[C@H]1[C@H](O)[C@@H](CO)O[C@@H](OC(=O)[C@]23CCC(C)(C)CC2C2=CCC4[C@@]5(C)CC[C@H](O[C@@H]6O[C@H](CO[C@@H]7OC[C@H](O)[C@H](O)[C@H]7O[C@@H]7OC[C@@H](O)[C@H](O)[C@H]7O)[C@@H](O)[C@H](O)[C@H]6O)C(C)(C)C5CC[C@@]4(C)[C@]2(C)CC3)[C@@H]1OC1OC(C)C(O[C@@H]2OC[C@@H](O)[C@H](O[C@@H]3OC[C@@H](O)[C@H](O)[C@H]3O)[C@H]2O)C(O)C1O (stereo not given in full) , thanks. 0.313

Need max response of CCN1C[C@]2(COC(=O)c3ccccc3N3C(=O)C[C@H](C)C3=O)CC[C@H](OC)[C@@]34[C@@H]5C[C@H]6[C@H](OC)[C@@H]5[C@](O)(C[C@@H]6OC)[C@](O)([C@@H](OC)[C@H]23)[C@@H]14 , thanks. 2.21

Need max response of Cc1cc(C(=O)CN2CCCC2)c(C)n1-c1ccc(F)cc1 , thanks. -9.04

Need max response of OCCCCC#Cc1cncc(OC[C@@H]2CCN2)c1 , thanks. -3.98

Need max response of CC1=C2C(=O)C3[C@@H](CC=C4C[C@@H](O)CC[C@@]43C)[C@@H]2CC[C@]12O[C@@H]1C[C@H](C)CN[C@H]1[C@H]2C (stereo not given in full) , thanks. -3.9

Need max response of COc1cc(CCNCc2ccccc2O)c(OC)cc1C#N , thanks. 2.88

Need max response of Cc1c(Cl)cccc1S(=O)(=O)Nc1nc(CC(=O)N2CCN(C)CC2)cs1 , thanks. -10.3

Need max response of Cc1cn(C[C@H](N)C(=O)O)c(=O)n(Cc2cc(-c3ccccc3)sc2C(=O)O)c1=O , thanks. -3.99

Need max response of COC(=O)C12C(=O)C(C)(O)C(=O)C1(C)C(C)=CC1C34CCC(OC3=O)C(C)(CO)C4CCC12C (stereo not given) , thanks. 4.01

Need max response of C=C1[C@@H]2CC[C@@]3(C)[C@H](c4ccoc4)OC(=O)C[C@]13O[C@H]1CC(=O)C(C)(C)[C@H](C(OC(C)=O)C(=O)OC)[C@]12C (stereo not given in full) , thanks. -1.58
